B1: library; numbered along this chain (parent)
chain: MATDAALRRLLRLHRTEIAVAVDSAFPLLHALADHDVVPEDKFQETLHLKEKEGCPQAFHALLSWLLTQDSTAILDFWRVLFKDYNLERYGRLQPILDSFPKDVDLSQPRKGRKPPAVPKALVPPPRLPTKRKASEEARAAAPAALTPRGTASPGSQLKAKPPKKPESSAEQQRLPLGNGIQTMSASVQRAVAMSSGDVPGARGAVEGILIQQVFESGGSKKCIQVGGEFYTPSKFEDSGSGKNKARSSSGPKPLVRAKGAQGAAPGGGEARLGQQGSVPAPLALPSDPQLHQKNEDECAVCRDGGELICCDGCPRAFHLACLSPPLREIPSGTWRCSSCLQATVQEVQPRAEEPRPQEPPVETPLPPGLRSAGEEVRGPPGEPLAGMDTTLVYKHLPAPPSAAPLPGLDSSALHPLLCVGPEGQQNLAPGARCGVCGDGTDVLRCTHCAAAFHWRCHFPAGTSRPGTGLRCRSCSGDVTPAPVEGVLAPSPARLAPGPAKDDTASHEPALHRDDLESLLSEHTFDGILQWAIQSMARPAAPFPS

variants of: B1; experiment: AIRE transcriptional activation functional score (insulin promoter-GFP; nonsense median 0, synonymous median 1) (normalised score); higher = higher AIRE activity (more reporter activation); conditions: with insulin promoter-GFP reporter in HEK293
Property Label: AIRE transcriptional activation functional score

INSERT INTO results (changes, result) VALUES
  ('A265S', 1.03),
  ('H512T', 0.649),
  ('P380K', 0.944),
  ('I528T', 0.117),
  ('I74F', -0.0221),
  ('S239F', 1.06),
  ('A138D', 0.727),
  ('N244R', 0.573),
  ('R378P', 0.932),
  ('L520V', 0.478),
  ('P405Q', 0.685),
  ('S339C', 0.985),
  ('C314M', 1.12),
  ('H30Q', -0.357),
  ('L495D', 1.68),
  ('L385D', -0.182),
  ('L128V', 1.12),
  ('G277S', 0.459),
  ('C55H', 0.145),
  ('Q94T', 0.511),
  ('P154A', 0.676),
  ('D515E', 1.18),
  ('V20P', 0.184),
  ('P162V', 0.356),
  ('Q262H', 0.819),
  ('A5P', 0.767),
  ('R110P', 0.621),
  ('C337L', 1.16),
  ('R272H', 0.444),
  ('C437K', 0.35),
  ('P166F', 1.94),
  ('S476T', 1.2),
  ('S476L', 0.829),
  ('C302W', 0.72),
  ('E354M', 1.47),
  ('A343E', 0.95),
  ('S24Y', 0.463),
  ('L210F', 1.01),
  ('G251K', 1.05),
  ('M388N', 0.557),
  ('L397W', 0.989),
  ('A452K', 0.517),
  ('L418I', 0.6),
  ('L11F', 0.127),
  ('Q225H', 0.951),
  ('L158R', 0.202);
